Please go through the items and note down their Emax (%)*.
# TESTED ON: mAChR M4 (UniProt P08173)
# Construct: hM1 and hM4 cDNAs were purchased from Missouri S&T cDNA Resource
# PROTOCOL SUMMARY: mAChR M4 cell-based functional assay (calcium mobilization, Fluo-4, FDSS)
# TEST SETTINGS: % ACh maximum at 30 μM
Output spec: scalar in %, unitless text.

input: // returns reported Emax (%)* for input COCCn1nc(NCc2ccc(S(C)(=O)=O)cc2)c2sc3nc(C)cc(C)c3c21 [Compound 119]
output: 65

input: // returns reported Emax (%)* for input Cc1cc(C)c2c(n1)sc1c(NCc3ccc4c(c3)OCCO4)nn(C)c12 [Compound 87]
output: 66

input: // returns reported Emax (%)* for input Cc1ccc2c(n1)sc1c(NCc3ccccc3)n[nH]c12 [Compound 50]
output: 57

input: // returns reported Emax (%)* for input COc1ccc(CNc2nn(C)c3c2sc2nccc(C)c23)cc1 [Compound 63]
output: 80
